Values compiled from paper PMC6272426.

protocol text: in vivo
run conditions: both, Sprague-Dawley, rat, po, 2.5 mg/kg
quantity measured: AUC
Enter the number, and then the unit.

IN: Query (compound): C=C[C@@H]1C[C@]1(NC(=O)[C@@H]1C[C@@H]2CN1C(=O)[C@H](C1CCCCC1)NC(=O)[C@@H](NC(=O)OC(C)(C)C)COC/C=C/c1cc3c(nccc3cc1OC)O2)C(=O)NS(=O)(=O)C1CC1 [GP205] ; field requested: AUC
OUT: 64300 ng·h/mL

====

protocol text: in vivo
run conditions: both, Sprague-Dawley, rat, po, 2.5 mg/kg
quantity measured: Tmax (h)
Value expressed in h; do not type the unit.

IN: Query (molecule): C=C[C@@H]1C[C@]1(NC(=O)[C@@H]1C[C@@H]2CN1C(=O)[C@H](C1CCCCC1)NC(=O)[C@@H](NC(=O)OC(C)(C)C)COC/C=C/c1cc3c(nccc3cc1OC)O2)C(=O)NS(=O)(=O)C1CC1 ; field requested: Tmax
OUT: 6.3
